biological target: T1, serum purified human Complement Factor D (human, UniProt P00746 26-253); test: SPR Biacore, antibody on protein A chip, single cycle kinetics, 37 C;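 further: antibodies captured on the protein A surface to roughly 70 RU in HBS-EP+ buffer, with rate and affinity constants fitted using BIAevaluation software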
T1 construct: Serum purified protein flowed over the captured antibodies; also called CFD; human CFD
T1 sequence (P00746 26-253): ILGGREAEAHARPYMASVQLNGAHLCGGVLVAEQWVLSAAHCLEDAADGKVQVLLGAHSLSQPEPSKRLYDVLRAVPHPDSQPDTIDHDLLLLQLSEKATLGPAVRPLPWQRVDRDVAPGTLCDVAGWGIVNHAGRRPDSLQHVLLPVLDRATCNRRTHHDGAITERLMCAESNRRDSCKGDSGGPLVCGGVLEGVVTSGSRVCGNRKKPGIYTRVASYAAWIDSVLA
quantityName: koff (s⁻¹)
The reply should be a number in s⁻¹, with the unit left off.

31S54I59D / 50I60W101V (antibody, V domains shown, KCD119 TAF variant; full antibody captured on protein A) VH: EVQLVESGGGLVQPGGSLRLSCAASGYTFTSYYMNWVRQAPGKGLEWIGDINPITGDTDYNADFKRRFTFSLDTSKSTAYLQMNSLRAEDTAVYYCTREGPSFAYWGQGTLVTVSS VL: DIQLTQSPSSLSASVGDRVTITCRSSQTIVHSNGDTYLEWYQQKPGKAPILLIYKVSNRWSGVPSRFSGSGSGTDFTLTISSLQPEDFATYYCFQGSHVPVTFGQGTKVEIK :: 0.000256
54I59D / 32W54S101V (antibody, V domains shown, Light label printed 32W545101V, read as 32W54S101V; also called 54I59D / 32W545101V) VH: EVQLVESGGGLVQPGGSLRLSCAASGYTFTDYYMNWVRQAPGKGLEWIGDINPITGDTDYNADFKRRFTFSLDTSKSTAYLQMNSLRAEDTAVYYCTREGPSFAYWGQGTLVTVSS VL: DIQLTQSPSSLSASVGDRVTITCRSSQTIVHWNGDTYLEWYQQKPGKAPNLLISKVSNRFSGVPSRFSGSGSGTDFTLTISSLQPEDFATYYCFQGSHVPVTFGQGTKVEIK :: 0.000155
31S54V59D / 54R101V (antibody, V domains shown, KCD119 TAF variant) VH: EVQLVESGGGLVQPGGSLRLSCAASGYTFTSYYMNWVRQAPGKGLEWIGDINPVTGDTDYNADFKRRFTFSLDTSKSTAYLQMNSLRAEDTAVYYCTREGPSFAYWGQGTLVTVSS VL: DIQLTQSPSSLSASVGDRVTITCRSSQTIVHSNGDTYLEWYQQKPGKAPNLLIRKVSNRFSGVPSRFSGSGSGTDFTLTISSLQPEDFATYYCFQGSHVPVTFGQGTKVEIKR :: 0.000242
31S34I54I59D84S / 54R101V (antibody, V domains shown, KCD119 TAF variant; also called 3I534I54I59D84S / 54R101V) VH: EVQLVESGGGLVQPGGSLRLSCAASGYTFTSYYINWVRQAPGKGLEWIGDINPITGDTDYNADFKRRFTFSLDTSKSTAYLQMSSLRAEDTAVYYCTREGPSFAYWGQGTLVTVSS VL: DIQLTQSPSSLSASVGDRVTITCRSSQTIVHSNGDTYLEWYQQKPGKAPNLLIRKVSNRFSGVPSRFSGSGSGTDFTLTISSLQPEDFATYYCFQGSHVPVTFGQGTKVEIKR :: 0.000137
54V / 101V (antibody, V domains shown, KCD119 TAF variant; full antibody captured on protein A) VH: EVQLVESGGGLVQPGGSLRLSCAASGYTFTDYYMNWVRQAPGKGLEWIGDINPVTGDTSYNADFKRRFTFSLDTSKSTAYLQMNSLRAEDTAVYYCTREGPSFAYWGQGTLVTVSS VL: DIQLTQSPSSLSASVGDRVTITCRSSQTIVHSNGDTYLEWYQQKPGKAPNLLIYKVSNRFSGVPSRFSGSGSGTDFTLTISSLQPEDFATYYCFQGSHVPVTFGQGTKVEIK :: 0.00158

Exercise: Give the reported koff for this binder. 31S34I54I59D / 32W60W101V (antibody, V domains shown, KCD119 TAF variant; full antibody captured on protein A) VH: EVQLVESGGGLVQPGGSLRLSCAASGYTFTSYYINWVRQAPGKGLEWIGDINPITGDTDYNADFKRRFTFSLDTSKSTAYLQMNSLRAEDTAVYYCTREGPSFAYWGQGTLVTVSS VL: DIQLTQSPSSLSASVGDRVTITCRSSQTIVHWNGDTYLEWYQQKPGKAPNLLIYKVSNRWSGVPSRFSGSGSGTDFTLTISSLQPEDFATYYCFQGSHVPVTFGQGTKVEIK
Key: 0.000208

Exercise: Give the reported koff for this binder. 34I54I59D / 54R101V (antibody, V domains shown, KCD119 TAF variant) VH: EVQLVESGGGLVQPGGSLRLSCAASGYTFTDYYINWVRQAPGKGLEWIGDINPITGDTDYNADFKRRFTFSLDTSKSTAYLQMNSLRAEDTAVYYCTREGPSFAYWGQGTLVTVSS VL: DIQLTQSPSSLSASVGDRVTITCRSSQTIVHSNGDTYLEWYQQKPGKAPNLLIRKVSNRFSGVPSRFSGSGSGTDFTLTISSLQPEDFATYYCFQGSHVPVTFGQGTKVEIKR
Key: 0.000264

Exercise: Give the reported koff for this binder. 31S54I59D / 54G101V (antibody, V domains shown, KCD119 TAF variant; full antibody captured on protein A) VH: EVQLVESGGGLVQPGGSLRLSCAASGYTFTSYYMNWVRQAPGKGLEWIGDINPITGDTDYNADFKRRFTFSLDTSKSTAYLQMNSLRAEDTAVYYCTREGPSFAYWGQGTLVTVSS VL: DIQLTQSPSSLSASVGDRVTITCRSSQTIVHSNGDTYLEWYQQKPGKAPNLLIGKVSNRFSGVPSRFSGSGSGTDFTLTISSLQPEDFATYYCFQGSHVPVTFGQGTKVEIK
Key: 0.000222

Exercise: Give the reported koff for this binder. 31S54I59D84S / 54R101V (antibody, V domains shown, also called 31554159D845 / 54R101V) VH: EVQLVESGGGLVQPGGSLRLSCAASGYTFTSYYMNWVRQAPGKGLEWIGDINPITGDTDYNADFKRRFTFSLDTSKSTAYLQMSSLRAEDTAVYYCTREGPSFAYWGQGTLVTVSS VL: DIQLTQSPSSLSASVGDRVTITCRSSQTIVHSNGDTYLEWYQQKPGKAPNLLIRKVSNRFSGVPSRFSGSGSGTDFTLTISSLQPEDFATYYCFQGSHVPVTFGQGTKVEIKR
Key: 0.000174

Exercise: Give the reported koff for this binder. 31S54I59D84S / 32W60W101V (antibody, V domains shown, Label printed 31S54I59D845, read as 84S; full antibody captured on protein A; also called 31S54I59D845 / 32W60W101V) VH: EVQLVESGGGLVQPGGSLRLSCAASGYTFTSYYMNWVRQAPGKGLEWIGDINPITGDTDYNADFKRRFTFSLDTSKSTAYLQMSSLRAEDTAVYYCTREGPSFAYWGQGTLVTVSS VL: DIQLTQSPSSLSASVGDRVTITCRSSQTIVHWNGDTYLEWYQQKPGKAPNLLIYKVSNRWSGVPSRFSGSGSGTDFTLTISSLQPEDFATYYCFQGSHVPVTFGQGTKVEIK
Key: 0.000209
